# ASSAYED SYSTEM: human MRGPRX2 (Homo sapiens)
# Sequence (Q96LB1 whole entry): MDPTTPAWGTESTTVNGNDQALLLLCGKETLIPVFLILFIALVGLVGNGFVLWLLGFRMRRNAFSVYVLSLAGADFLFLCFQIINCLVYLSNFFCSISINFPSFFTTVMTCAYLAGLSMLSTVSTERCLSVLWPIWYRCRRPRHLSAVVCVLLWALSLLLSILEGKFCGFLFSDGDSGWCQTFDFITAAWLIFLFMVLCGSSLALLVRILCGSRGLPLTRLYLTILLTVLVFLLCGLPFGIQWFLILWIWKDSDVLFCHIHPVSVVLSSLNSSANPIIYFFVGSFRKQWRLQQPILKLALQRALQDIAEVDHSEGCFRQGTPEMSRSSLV
# ASSAY: Ca2+ mobilization assay (FLIPR TETRA): inhibition of Cortistatin-14 mediated MRGPRX2 activation
REPORTED PROPERTY: IC50

Previously resolved entries follow.
COMPOUND	IC50
C[C@@H](C(=O)Nc1ccc2oc(C3CC3)nc2n1)N1CCC(F)(F)[C@@H](c2ccc(=O)[nH]c2)C1	100 to 3160 nM
CC(C(=O)Nc1cc2cnn(CC3CC3)c2cn1)N1CCC(F)(F)[C@@H](c2ccc(=O)[nH]c2)C1 (stereo partly shown)	100 to 3160 nM
C[C@@H](C(=O)Nc1ccc(OCC2CC2)nn1)N1CCC(F)(F)[C@@H](c2ccc(=O)[nH]n2)C1	10 to 100 nM
C[C@@H](C(=O)Nc1cnc(Oc2ccc(F)cc2)cn1)N1CCC(F)(F)[C@@H](c2c[nH]c(=O)c(CS(C)(=O)=O)c2)C1	10 to 100 nM
CC(C(=O)Nc1ccc(Oc2cccc(=O)[nH]2)cn1)N1CCC(F)(F)[C@@H](c2ccc(=O)[nH]c2)C1 (stereo partly shown)	10 to 100 nM

Look up IC50: C[C@@H](C(=O)Nc1ccc(Cl)cn1)N1CCC[C@@H](c2c[nH]c(=O)c(-c3ccccc3)c2)C1 (single isomer, unassigned)
100 to 3160 nM

Look up IC50: `C[C@@H](C(=O)Nc1cnc(Oc2ccc(F)cc2)cn1)[C@H]1CCC(F)(F)[C@@H](c2cc[n+]([O-])cc2)C1`
10 to 100 nM

Look up IC50: `C[C@@H](C(=O)Nc1cc2ccccc2cn1)N1CCC(F)(F)[C@@H](c2ccc(=O)[nH]c2)C1`
100 to 3160 nM

Look up IC50: C[C@@H](C(=O)Nc1ccc(Oc2ccc(F)cc2)cn1)N1CCC(F)(F)[C@@H](c2c[nH]c(=O)c([C@H](N)C(F)(F)F)c2)C1 (single isomer, unassigned)
≤ 10 nM

* * *

# ASSAYED SYSTEM: human MRGPRX2 (Homo sapiens)
# ASSAY: Ca2+ mobilization assay (FLIPR TETRA): inhibition of Cortistatin-14 mediated MRGPRX2 activation
pIC50: −log10 of the molar value.
REPORTED PROPERTY: pIC50

Previously resolved entries follow.
COMPOUND	pIC50
C[C@@H](C(=O)Nc1ccc(Oc2ccc(F)cc2F)cn1)N1CCC(F)(F)[C@@H](c2c[nH]c(=O)c(CN3CCOCC3)c2)C1	≥ 8.00
C[C@@H](C(=O)Nc1ccc(Oc2ccccc2)cn1)N1CCC(F)(F)[C@@H](c2ccc(=O)[nH]c2)C1	≥ 8.00

Look up pIC50: C[C@@H](C(=O)Nc1ccc(Cl)cn1)N1CCC[C@@H](c2cc[n+]([O-])cc2)C1 (single isomer, unassigned)
4.50 to 5.50

Look up pIC50: CC(C(=O)Nc1ccc(F)cn1)N1CCC(F)(F)C(c2ccc(=O)n(Cc3ncco3)c2)C1 (stereo not drawn)
7.00 to 8.00

Look up pIC50: C[C@@H](C(=O)Nc1ccc(Cl)cn1)N1CCC[C@@H](c2c[nH]c(=O)c(CO)c2)C1 (single isomer, unassigned)
4.50 to 5.50

Look up pIC50: `COc1cc(F)ccc1Oc1ccc(NC(=O)[C@H](C)N2CCC(F)(F)[C@@H](c3ccc(=O)[nH]c3)C2)nc1`
≥ 8.00

Look up pIC50: C[C@@H](C(=O)Nc1ccc(Oc2ccc(F)cc2F)cn1)N1CCC(F)(F)[C@@H](c2c[nH]c(=O)c([C@@H](N)C(F)(F)F)c2)C1 (single isomer, unassigned)
≥ 8.00
